Documented EC50 across a set of compounds
# study_target: human F508del-CFTR (Homo sapiens, UniProt P13569, DEL508-508)
# Sequence (P13569 with tags, fused parts or gaps DEL508-508): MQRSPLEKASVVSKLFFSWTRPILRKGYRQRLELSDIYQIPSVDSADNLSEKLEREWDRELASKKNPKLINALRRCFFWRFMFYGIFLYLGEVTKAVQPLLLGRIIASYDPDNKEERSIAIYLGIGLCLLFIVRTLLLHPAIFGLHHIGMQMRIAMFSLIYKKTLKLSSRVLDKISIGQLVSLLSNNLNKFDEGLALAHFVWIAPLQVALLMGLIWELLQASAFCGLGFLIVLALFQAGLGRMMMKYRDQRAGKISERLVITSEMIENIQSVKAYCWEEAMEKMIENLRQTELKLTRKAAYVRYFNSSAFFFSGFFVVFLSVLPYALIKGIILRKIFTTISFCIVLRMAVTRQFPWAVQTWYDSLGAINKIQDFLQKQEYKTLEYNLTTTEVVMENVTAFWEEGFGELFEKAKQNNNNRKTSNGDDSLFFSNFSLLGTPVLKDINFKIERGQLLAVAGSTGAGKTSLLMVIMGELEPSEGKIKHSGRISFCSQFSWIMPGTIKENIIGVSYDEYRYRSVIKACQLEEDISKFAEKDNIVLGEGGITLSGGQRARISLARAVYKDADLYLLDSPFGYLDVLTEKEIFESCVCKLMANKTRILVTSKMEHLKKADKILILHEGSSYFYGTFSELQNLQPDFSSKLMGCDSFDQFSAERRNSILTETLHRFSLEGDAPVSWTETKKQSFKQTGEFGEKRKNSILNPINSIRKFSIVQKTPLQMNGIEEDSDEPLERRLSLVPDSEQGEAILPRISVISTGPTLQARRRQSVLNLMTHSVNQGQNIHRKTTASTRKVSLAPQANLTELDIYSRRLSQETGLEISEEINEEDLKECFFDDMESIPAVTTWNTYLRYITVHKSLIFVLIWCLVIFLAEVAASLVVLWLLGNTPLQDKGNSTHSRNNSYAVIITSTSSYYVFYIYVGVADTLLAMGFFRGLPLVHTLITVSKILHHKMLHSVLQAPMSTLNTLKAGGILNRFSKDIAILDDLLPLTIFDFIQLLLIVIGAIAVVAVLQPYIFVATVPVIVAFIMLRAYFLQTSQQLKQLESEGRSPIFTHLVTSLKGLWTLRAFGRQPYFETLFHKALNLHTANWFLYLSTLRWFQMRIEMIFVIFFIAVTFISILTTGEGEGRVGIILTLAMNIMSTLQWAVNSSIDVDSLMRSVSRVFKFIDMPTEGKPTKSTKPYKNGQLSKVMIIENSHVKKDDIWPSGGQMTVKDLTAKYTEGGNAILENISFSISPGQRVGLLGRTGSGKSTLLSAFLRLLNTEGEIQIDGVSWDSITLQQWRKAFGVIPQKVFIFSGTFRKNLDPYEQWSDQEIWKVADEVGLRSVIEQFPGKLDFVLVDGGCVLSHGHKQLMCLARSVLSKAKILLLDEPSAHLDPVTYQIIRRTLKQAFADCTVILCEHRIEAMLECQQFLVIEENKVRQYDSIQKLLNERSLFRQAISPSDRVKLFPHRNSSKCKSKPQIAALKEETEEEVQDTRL
# measurement_protocol: F508del-CFTR cell surface expression (corrector activity), DiscoveRx ß-galactosidase complementation chemiluminescence assay in recombinant U2OS cell line
# reported_conditions: EC50, F508del-CFTR cell surface expression, U2OS cell line, 16h compound incubation; geomean values
Unit nM implied. Number only.

Query: Recorded EC50 of COc1cccc(CCNC(=O)[C@@H]2CC(=O)N(C)[C@@H](CC(C)C)C(=O)N(CC[C@H]3CCCCO3)CC(=O)N[C@H](Cc3ccccc3)COc3ccc4ccccc4c3C(=O)N2)c1 (racemic) [Example 297] , please.
Reply: 193

Query: Recorded EC50 of Cc1cc(CCNC(=O)[C@@H]2CC(=O)N(C)[C@@H](CC(C)C)C(=O)N3CCN(C(C)C)C[C@@H]3C(=O)N[C@H](Cc3ccccc3)COc3cnc4ccccc4c3C(=O)N2)on1 [Example 375] , please.
Reply: 461

Query: Recorded EC50 of CC(C)C[C@H]1C(=O)N2CCOC[C@@H]2C(=O)N[C@H](Cc2ccccc2)COc2cnc3ccccc3c2C(=O)N[C@H](C(=O)NCCc2cc(C3CC3)on2)CC(=O)N1C [Example 106] , please.
Reply: 864

====

# study_target: human F508del-CFTR (Homo sapiens, UniProt P13569, DEL508-508)
# measurement_protocol: F508del-CFTR cell surface expression (corrector activity), DiscoveRx ß-galactosidase complementation chemiluminescence assay in recombinant U2OS cell line
# reported_conditions: EC50, F508del-CFTR cell surface expression, U2OS cell line, 16h compound incubation; geomean values
outcome_measure: EC50

molecule=COc1nccc2c1C(=O)N[C@H](C(=O)NCCc1cnn(C3CC3)n1)CC(=O)N(C)[C@@H](CC(C)C)C(=O)N1CCCC[C@@H]1C(=O)N[C@H](Cc1ccccc1)CO2 outcome_measure=EC50 experimental_value="0.645 µM"
molecule=CC(C)C[C@H]1C(=O)N2CCCC[C@@H]2C(=O)N[C@H](Cc2ccccc2)COc2ccc3ncn(C)c3c2C(=O)N[C@H](C(=O)NCCc2nc3c(s2)CCC3)CC(=O)N1C outcome_measure=EC50 experimental_value="0.439 µM"
molecule=CC(C)C[C@H]1C(=O)N(CCC2CCCCC2)CC(=O)N[C@H](Cc2ccccc2)COc2ccncc2C(=O)N[C@H](C(=O)NCCc2ccc3c(c2)OCC3)CC(=O)N1C outcome_measure=EC50 experimental_value="0.339 µM"
molecule="COc1cccc(CCNC(=O)[C@@H]2CC(=O)N(C)[C@@H](CC3CCCCC3)C(=O)N(CCC3CCCCC3)CC(=O)N[C@H](Cc3ccccc3)COc3ccc4ccccc4c3C(=O)N2)c1 (mixture of isomers)" outcome_measure=EC50 experimental_value="0.112 µM"
molecule=CC(C)C[C@H]1C(=O)N(C)C2(CC2)C(=O)N[C@H](Cc2ccccc2)COc2cnc3ccccc3c2C(=O)N[C@H](C(=O)NCCc2cc(C3CC3)on2)CC(=O)N1C outcome_measure=EC50 experimental_value="0.329 µM"

Query: Recorded EC50 of `COc1ccc(CCNC(=O)[C@@H]2CC(=O)N(C)[C@@H](CC(C)C)C(=O)N(CCC3CCCCC3)CC(=O)N[C@H](Cc3ccccc3)COc3cccc(OC)c3C(=O)N2)nc1` , please.
Reply: 0.317 µM

Query: Recorded EC50 of `COc1cc(CCNC(=O)[C@@H]2CC(=O)N(C)[C@@H](CC(C)C)C(=O)N3CCCC[C@@H]3C(=O)N[C@H](Cc3ccccc3)COc3ccc4nc(C)n(C)c4c3C(=O)N2)cc(OC)c1` , please.
Reply: 0.704 µM

Query: Recorded EC50 of `Cc1ccc(F)c(CCNC(=O)[C@@H]2CC(=O)N(C)[C@@H](CC(C)C)C(=O)N3CCCC[C@@H]3C(=O)N[C@H](Cc3ccccc3)COc3cnc4ccccc4c3C(=O)N2)c1` , please.
Reply: 0.289 µM

====

# study_target: human F508del-CFTR (Homo sapiens, UniProt P13569, DEL508-508)
# measurement_protocol: F508del-CFTR cell surface expression (corrector activity), DiscoveRx ß-galactosidase complementation chemiluminescence assay in recombinant U2OS cell line
# reported_conditions: EC50, F508del-CFTR cell surface expression, U2OS cell line, 16h compound incubation; geomean values
outcome_measure: pEC50
// field semantics: pEC50 = negative decimal log of concentration (mol/L)

Consider the reported pEC50 for these compounds:
chemical_structure=COc1cc2c(cc1OC)C(=O)N[C@H](C(=O)NCCc1ccc(C)cc1)CC(=O)N(C)[C@@H](CC(C)C)C(=O)N(C)CC(=O)N[C@H](Cc1ccccc1)CO2 study_target="human F508del-CFTR (Homo sapiens, UniProt P13569, DEL508-508)" outcome_measure=pEC50 experimental_value=6.50
chemical_structure=CC(C)C[C@H]1C(=O)N(C)C2(CC2)C(=O)N[C@H](Cc2ccccc2)COc2cnc3ccc(F)cc3c2C(=O)N[C@H](C(=O)NCCc2ccc(-c3cnccn3)cc2)CC(=O)N1C study_target="human F508del-CFTR (Homo sapiens, UniProt P13569, DEL508-508)" outcome_measure=pEC50 experimental_value=6.83
chemical_structure=CC(C)C[C@H]1C(=O)N2CCOC[C@@H]2C(=O)N[C@H](Cc2ccccc2)COc2cnc3ccccc3c2C(=O)N[C@H](C(=O)NCCc2ccc3c(c2)OCCO3)CC(=O)N1C study_target="human F508del-CFTR (Homo sapiens, UniProt P13569, DEL508-508)" outcome_measure=pEC50 experimental_value=6.22
chemical_structure=Cc1nc2ccc3c(c2o1)C(=O)N[C@H](C(=O)NCCc1ccc2c(c1)OCO2)CC(=O)N(C)[C@@H](CC(C)C)C(=O)N(CCC1CCCCC1)CC(=O)N[C@H](Cc1ccccc1)CO3 study_target="human F508del-CFTR (Homo sapiens, UniProt P13569, DEL508-508)" outcome_measure=pEC50 experimental_value=7.12
chemical_structure=Cc1cccc(CCNC(=O)[C@@H]2CC(=O)N(C)[C@@H](CC(C)C)C(=O)N3CCOC[C@@H]3C(=O)N[C@H](Cc3ccccc3)COc3cnc4ccccc4c3C(=O)N2)c1 study_target="human F508del-CFTR (Homo sapiens, UniProt P13569, DEL508-508)" outcome_measure=pEC50 experimental_value=6.09

Query: Recorded pEC50 of `COc1cccc(CCNC(=O)[C@@H]2CC(=O)N(C)[C@@H](CC(C)C)C(=O)N(C)CC(=O)N[C@H](Cc3ccccc3)COc3cnc4c(F)cccc4c3C(=O)N2)c1` , please.
Reply: 6.26

Query: Recorded pEC50 of `COc1cccc(CCNC(=O)[C@@H]2CC(=O)N(C)[C@@H](CC(C)C)C(=O)N(C[C@H]3CCCCO3)CC(=O)N[C@H](Cc3ccccc3)COc3cccc(OC)c3C(=O)N2)c1` , please.
Reply: 6.34

Query: Recorded pEC50 of `COc1cccc2c1C(=O)N[C@H](C(=O)NCCc1cc(C)no1)CC(=O)N(C)[C@@H](CC(C)C)C(=O)N(CCC1CCCCC1)CC(=O)N[C@H](Cc1ccccc1)CO2` , please.
Reply: 6.53

Query: Recorded pEC50 of `COc1cccc2c1C(=O)N[C@H](C(=O)NCCc1ccccc1F)CC(=O)N(C)[C@@H](CC(C)C)C(=O)N(CCC1CCCCC1)CC(=O)N[C@H](Cc1ccccc1)CO2` , please.
Reply: 6.70

Query: Recorded pEC50 of `CC(C)C[C@H]1C(=O)N(C)C2(CC2)C(=O)N[C@H](Cc2ccccc2)COc2cnc3ccc(F)cc3c2C(=O)N[C@H](C(=O)NCCc2noc(C3CC3)n2)CC(=O)N1C` , please.
Reply: 6.68

====

Documented Emax across a set of molecules
# study_target: human F508del-CFTR (Homo sapiens, UniProt P13569, DEL508-508)
# measurement_protocol: F508del-CFTR cell surface expression (corrector activity), DiscoveRx ß-galactosidase complementation chemiluminescence assay in recombinant U2OS cell line;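 further: U2OS cells co-expressing ProLink-tagged F508del-CFTR and a membrane-anchored enzyme acceptor, where more surface CFTR restores β-galactosidase activity measured by chemiluminescence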
# reported_conditions: U2OS, in relation to the Emax of the corrector lumacaftor (=100%); U2OS cell line, 16h compound incubation; arithmetic mean values
Unit % implied. Number only.

molecule=Cc1ccc(F)c(CCNC(=O)[C@@H]2CC(=O)N(C)[C@@H](CC(C)C)C(=O)N3CCCC[C@@H]3C(=O)N[C@H](Cc3ccccc3)COc3cnc4ccccc4c3C(=O)N2)c1F outcome_measure=Emax output_unit=% experimental_value=332
molecule=COc1cc(CCNC(=O)[C@@H]2CC(=O)N(C)[C@@H](CC(C)C)C(=O)N(C)C3(CC3)C(=O)N[C@H](Cc3ccccc3)COc3cnc4ccccc4c3C(=O)N2)cc(OC)c1 outcome_measure=Emax output_unit=% experimental_value=321
molecule="COc1cccc(CCNC(=O)[C@@H]2CC(=O)N(C)[C@@H](CC(C)C)C(=O)N(C[C@@H]3CCCCO3)CC(=O)N[C@H](Cc3ccccc3)COc3ccc4ccccc4c3C(=O)N2)c1 (racemic)" outcome_measure=Emax output_unit=% experimental_value=149
molecule=CC(C)C[C@H]1C(=O)N2CCN(C3CC3)C[C@H]2C(=O)N[C@H](Cc2ccccc2)COc2cnc3ccccc3c2C(=O)N[C@H](C(=O)NCCc2ccc3c(c2)OCO3)CC(=O)N1C outcome_measure=Emax output_unit=% experimental_value=144

Proceed to the following item.
Query: Recorded Emax of `CC(C)C[C@H]1C(=O)N(CCC2CCCCC2)CC(=O)N[C@H](Cc2ccccc2)COc2cc3c(cc2C(=O)N[C@H](C(=O)NCCc2ccc4c(c2)OCO4)CC(=O)N1C)OCO3` , please.
Reply: 150
